tested on: diaphorase; assay: fluorescently labeled diaphorase binding to peptide array with or without excess FAD; conditions: ratio of binding without FAD to binding with FAD, 1 micromolar diaphorase
sequences and their reported 1 microM noFAD/FAD
metric_name: 1 microM noFAD/FAD

• YSALFGLQEDGSG [array peptide with C-terminal GSG linker] = 0.5834
• DLDKAFGGSG [array peptide with C-terminal GSG linker] = 0.2963
• RFKYPLDGGSG [array peptide with C-terminal GSG linker] = 2.621
• WRGFKFADGGSG [array peptide with C-terminal GSG linker] = 2.622
• YRNAAWFSGGSG [array peptide with C-terminal GSG linker] = 2.861
• RWQYYNQKFGSG [array peptide with C-terminal GSG linker] = 2.876
• WLDLGVFPYQHLGSG [array peptide with C-terminal GSG linker] = 0.6414
• RWSFPAKGGSG [array peptide with C-terminal GSG linker] = 2.768
• LDRLGEYQFSGSG [array peptide with C-terminal GSG linker] = 0.6089

Source: patent US20190064177A1
